Values were extracted from patent US20240132517A1.

System: SRC (Homo sapiens (Human)) | Read-out: IC50
Sequence (P12931 whole entry, looked up): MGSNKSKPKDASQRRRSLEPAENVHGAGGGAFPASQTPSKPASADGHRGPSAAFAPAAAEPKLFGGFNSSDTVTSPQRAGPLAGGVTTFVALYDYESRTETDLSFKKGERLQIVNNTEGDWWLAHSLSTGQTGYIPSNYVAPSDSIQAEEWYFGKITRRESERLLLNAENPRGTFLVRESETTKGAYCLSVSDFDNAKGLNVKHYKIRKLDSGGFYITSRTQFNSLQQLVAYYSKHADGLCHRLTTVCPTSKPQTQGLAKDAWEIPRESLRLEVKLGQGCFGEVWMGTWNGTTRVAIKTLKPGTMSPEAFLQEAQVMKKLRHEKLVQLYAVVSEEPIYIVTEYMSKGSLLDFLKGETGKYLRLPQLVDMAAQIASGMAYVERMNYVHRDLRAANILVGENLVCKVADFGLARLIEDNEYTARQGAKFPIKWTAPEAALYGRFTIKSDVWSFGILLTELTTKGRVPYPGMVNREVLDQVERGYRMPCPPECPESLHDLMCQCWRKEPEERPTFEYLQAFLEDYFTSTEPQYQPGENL
MEASUREMENT LABEL: IC50

>>> result("CCN1Cc2c(ccc(F)c2C#N)O[C@@H](C)CNC(=O)c2c(N)nn3ccc1nc23 [TPX-0022, reference compound]")
"7.5 nM"
>>> result("C[C@H]1COC(=O)c2cnn3ccc(nc23)N[C@H](C)c2cc(F)ccc2O1 [Comparative Compound 42, reference compound]")
"289 nM"
>>> result("CCN1Cc2c(ccc(F)c2C#N)O[C@@H](C)COC(=O)c2c(N)nn3ccc1nc23")
"30 nM"

----------
ASSAYED SYSTEM: UniProtKB P07333
Sequence (P07333 20-972): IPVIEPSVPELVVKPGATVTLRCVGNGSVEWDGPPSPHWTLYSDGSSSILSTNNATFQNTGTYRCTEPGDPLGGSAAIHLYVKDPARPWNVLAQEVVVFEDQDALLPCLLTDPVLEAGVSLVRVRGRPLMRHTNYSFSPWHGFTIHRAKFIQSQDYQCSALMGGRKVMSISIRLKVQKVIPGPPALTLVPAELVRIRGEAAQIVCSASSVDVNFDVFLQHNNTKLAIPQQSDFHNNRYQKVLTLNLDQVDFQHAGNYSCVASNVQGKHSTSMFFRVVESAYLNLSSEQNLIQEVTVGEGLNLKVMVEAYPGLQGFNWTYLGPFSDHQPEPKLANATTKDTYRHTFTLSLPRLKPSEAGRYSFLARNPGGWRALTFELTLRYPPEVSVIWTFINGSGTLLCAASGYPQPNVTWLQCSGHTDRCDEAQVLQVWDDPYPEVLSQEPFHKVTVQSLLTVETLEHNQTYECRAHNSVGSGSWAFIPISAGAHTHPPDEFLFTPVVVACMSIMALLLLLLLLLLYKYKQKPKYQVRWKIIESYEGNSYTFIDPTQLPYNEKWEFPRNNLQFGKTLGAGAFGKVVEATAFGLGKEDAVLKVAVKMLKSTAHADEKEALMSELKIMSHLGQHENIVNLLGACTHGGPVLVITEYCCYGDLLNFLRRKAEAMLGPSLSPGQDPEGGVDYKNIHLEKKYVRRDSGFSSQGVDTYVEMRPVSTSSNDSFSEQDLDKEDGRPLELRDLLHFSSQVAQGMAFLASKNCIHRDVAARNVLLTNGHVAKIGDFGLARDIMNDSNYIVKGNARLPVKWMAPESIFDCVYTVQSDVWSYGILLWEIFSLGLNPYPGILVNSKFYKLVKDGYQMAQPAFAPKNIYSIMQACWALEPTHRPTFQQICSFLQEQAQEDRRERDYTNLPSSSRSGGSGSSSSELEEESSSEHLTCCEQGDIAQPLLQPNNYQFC
MEASUREMENT LABEL: IC50

>>> result("C[C@H]1COC(=O)c2cnn3ccc(nc23)N[C@H](C)c2cc(F)ccc2O1 [Comparative Compound 42, reference compound]")
"> 10 µM"

----------
ASSAYED SYSTEM: c-Met (Homo sapiens (Human), UniProt P08581)
Sequence (P08581 25-1390): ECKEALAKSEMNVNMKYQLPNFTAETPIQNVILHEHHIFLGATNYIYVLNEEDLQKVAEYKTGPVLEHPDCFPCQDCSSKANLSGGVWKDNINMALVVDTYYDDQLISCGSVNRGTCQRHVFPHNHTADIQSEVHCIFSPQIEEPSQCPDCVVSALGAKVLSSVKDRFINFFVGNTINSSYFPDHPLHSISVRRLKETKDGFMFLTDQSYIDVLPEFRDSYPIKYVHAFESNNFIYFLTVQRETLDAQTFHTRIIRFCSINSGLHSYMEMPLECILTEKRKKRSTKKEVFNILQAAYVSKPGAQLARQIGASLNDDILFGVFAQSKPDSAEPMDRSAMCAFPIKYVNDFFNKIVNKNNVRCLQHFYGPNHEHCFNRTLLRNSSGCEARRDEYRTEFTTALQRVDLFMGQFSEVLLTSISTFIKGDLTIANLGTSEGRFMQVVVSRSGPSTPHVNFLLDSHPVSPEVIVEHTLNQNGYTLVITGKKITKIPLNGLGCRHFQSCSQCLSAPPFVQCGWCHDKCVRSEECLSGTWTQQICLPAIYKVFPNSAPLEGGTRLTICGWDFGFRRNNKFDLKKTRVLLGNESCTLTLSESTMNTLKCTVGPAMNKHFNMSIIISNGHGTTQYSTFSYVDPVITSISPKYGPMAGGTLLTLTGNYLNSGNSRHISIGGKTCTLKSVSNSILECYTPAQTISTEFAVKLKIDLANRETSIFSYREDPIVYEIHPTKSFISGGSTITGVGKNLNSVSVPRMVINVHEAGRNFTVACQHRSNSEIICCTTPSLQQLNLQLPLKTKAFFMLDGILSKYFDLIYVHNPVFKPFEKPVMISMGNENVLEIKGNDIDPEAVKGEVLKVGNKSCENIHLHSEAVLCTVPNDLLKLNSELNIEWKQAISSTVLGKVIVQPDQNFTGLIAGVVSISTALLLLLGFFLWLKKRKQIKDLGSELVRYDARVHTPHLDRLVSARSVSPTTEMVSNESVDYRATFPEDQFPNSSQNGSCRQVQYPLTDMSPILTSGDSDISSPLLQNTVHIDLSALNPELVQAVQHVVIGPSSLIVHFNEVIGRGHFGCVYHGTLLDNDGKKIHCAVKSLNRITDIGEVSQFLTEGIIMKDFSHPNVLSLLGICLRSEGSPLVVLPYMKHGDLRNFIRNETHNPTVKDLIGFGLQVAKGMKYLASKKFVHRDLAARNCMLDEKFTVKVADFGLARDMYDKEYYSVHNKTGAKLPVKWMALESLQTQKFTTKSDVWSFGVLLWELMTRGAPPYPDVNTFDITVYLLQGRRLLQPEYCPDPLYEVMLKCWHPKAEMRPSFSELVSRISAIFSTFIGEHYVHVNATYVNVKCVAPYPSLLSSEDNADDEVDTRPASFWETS
Here the recorded IC50 is given for each entry.
MEASUREMENT LABEL: IC50 (nM)

>>> number("C[C@H]1COC(=O)c2cnn3ccc(nc23)N[C@H](C)c2cc(F)ccc2O1 [Comparative Compound 42, reference compound]")
85
>>> number("CCN1Cc2c(ccc(F)c2C#N)O[C@@H](C)COC(=O)c2c(N)nn3ccc1nc23 [Example 2]")
1.8
